# key: entry, value: pIC50
Biological target: SARS-CoV-2 main protease (M^pro) (Severe acute respiratory syndrome coronavirus 2, UniProt P0DTD1)
Test: Rapid-Fire MS Biochemical Assay measuring Mpro activity (5 nM Mpro)
Settings: Table 1B, Mpro inhibition, 5 μM substrate peptide, 120 min, read-out: Rapid-Fire Assay IC50
pIC50: −log10 of the molar value.

compound	pIC50
Cc1ncccc1N1C[C@H](C#N)N(c2cncc3ccccc23)C1=O (single isomer, unassigned) [Compound 74a]	6.00 to 6.70
COc1cc(Cl)ccc1N1C[C@@H](C#N)N(c2cncc3ccccc23)C1=O (single isomer, unassigned) [Compound 103b]	< 6.00
N#C[C@@H]1CN(c2ccc(F)c(Cl)c2)C(=O)N1c1cncc2ccccc12 (single isomer, unassigned) [Compound 87b]	< 6.00
Cc1ncc(C(F)(F)F)cc1N1C[C@H](C#N)N(c2cncc3ccccc23)C1=O (single isomer, unassigned) [Compound 88a]	> 7.70
Cc1ccnc(N2C[C@H](C#N)N(c3cncc4ccccc34)C2=O)n1 (single isomer, unassigned) [Compound 53a]	6.00 to 6.70
C[C@]1(C#N)CN(c2cccc(Cl)c2)C(=O)N1c1cncc2ccccc12 (single isomer, unassigned) [Compound 40a]	6.00 to 6.70
N#C[C@H]1CN(c2ccc(C(F)(F)F)nn2)C(=O)N1c1cncc2ccccc12 (single isomer, unassigned) [Compound 81a]	> 7.70

Value source: patent US20250092016A1
